PROCEDURE TEXT: Biodistribution of ^131 I-3 in CD-1 Mice, normal and blocked with lisinopril
Assay type: in vivo
RUN CONDITIONS: mouse, lung, iv, 1 uCi, 0.5 hours, blocked (lisinopril); read-out: Biodistribution, Lung
OUTCOME MEASURE: tissue uptake at 0.5 h (%ID/g)
API: value field is a number in %ID/g; no unit string.

The reported value for O=C(NCCCC[C@H](N[C@@H](CCc1ccccc1)C(=O)O)C(=O)N1CCC[C@H]1C(=O)O)c1cccc([131I])c1 [^131 I-3, Lisinopril N^ε -radioiodobezamide] in terms of tissue uptake at 0.5 h is 1

====

PROCEDURE TEXT: Biodistribution of ^131 I-3 in CD-1 Mice, normal and blocked with lisinopril
Format: in vivo
RUN CONDITIONS: mouse, kidney, iv, 1 uCi, 3.0 hours, blocked (lisinopril); read-out: Biodistribution, Kidney
OUTCOME MEASURE: tissue uptake at 3 h (%ID/g)
Give a bare numeral; the unit %ID/g is implied.

Form: compound = O=C(NCCCC[C@H](N[C@@H](CCc1ccccc1)C(=O)O)C(=O)N1CCC[C@H]1C(=O)O)c1cccc([131I])c1 [^131 I-3, Lisinopril N^ε -radioiodobezamide] ; tissue uptake at 3 h = 1.4

====

PROCEDURE TEXT: Biodistribution of ^131 I-3 in CD-1 Mice, normal and blocked with lisinopril
Format: in vivo
RUN CONDITIONS: mouse, stomach, iv, 1 uCi, 1.5 hours, normal (not blocked); read-out: Biodistribution, Stomach
OUTCOME MEASURE: tissue uptake at 1.5 h (%ID/g)
All answers are understood in %ID/g, so give the number only.

get_value(item= O=C(NCCCC[C@H](N[C@@H](CCc1ccccc1)C(=O)O)C(=O)N1CCC[C@H]1C(=O)O)c1cccc([131I])c1 [^131 I-3, Lisinopril N^ε -radioiodobezamide] , readout=tissue uptake at 1.5 h) returns 28.7

====

PROCEDURE TEXT: Biodistribution of ^131 I-3 in CD-1 Mice, normal and blocked with lisinopril
Type: in vivo
RUN CONDITIONS: mouse, large intestine, iv, 1 uCi, 3.0 hours, blocked (lisinopril); read-out: Biodistribution, lg. Intest.
OUTCOME MEASURE: tissue uptake at 3 h (%ID/g)
Form entry: value (%ID/g) — number only.

Input O=C(NCCCC[C@H](N[C@@H](CCc1ccccc1)C(=O)O)C(=O)N1CCC[C@H]1C(=O)O)c1cccc([131I])c1 [^131 I-3, Lisinopril N^ε -radioiodobezamide] . Output tissue uptake at 3 h: 13.4

====

PROCEDURE TEXT: Biodistribution of ^131 I-3 in CD-1 Mice, normal and blocked with lisinopril
Type: in vivo
RUN CONDITIONS: mouse, large intestine, iv, 1 uCi, 0.5 hours, normal (not blocked); read-out: Biodistribution, lg. Intest.
OUTCOME MEASURE: tissue uptake at 0.5 h (%ID/g)
Response body: numeric value in %ID/g, unit text excluded.

Note to self: tissue uptake at 0.5 h recorded for O=C(NCCCC[C@H](N[C@@H](CCc1ccccc1)C(=O)O)C(=O)N1CCC[C@H]1C(=O)O)c1cccc([131I])c1 [^131 I-3, Lisinopril N^ε -radioiodobezamide] was 1.5

====

PROCEDURE TEXT: Biodistribution of ^131 I-3 in CD-1 Mice, normal and blocked with lisinopril
Type: in vivo
RUN CONDITIONS: mouse, fat, iv, 1 uCi, 0.5 hours, blocked (lisinopril); read-out: Biodistribution, Fat
OUTCOME MEASURE: tissue uptake at 0.5 h

get_value(item= O=C(NCCCC[C@H](N[C@@H](CCc1ccccc1)C(=O)O)C(=O)N1CCC[C@H]1C(=O)O)c1cccc([131I])c1 [^131 I-3, Lisinopril N^ε -radioiodobezamide] , readout=tissue uptake at 0.5 h) returns 0.6 %ID/g
